- Target: T1, human IGF2^1-67 (mature insulin-like growth factor 2) (human, UniProt P01344 25-91, biotinylated (site not stated) where immobilised on the chip (Tables 1-4))
- T1 construct: mature; also called mature IGF2; biotinylated IGF2
- T1 sequence (P01344 25-91): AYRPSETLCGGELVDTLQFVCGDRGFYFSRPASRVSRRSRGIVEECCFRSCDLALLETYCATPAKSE
- Assay protocol: SPR kinetic, biotin-IGF2 on chip
Result type: kon (M⁻¹ s⁻¹)
Provide only the numeric value, understood in M⁻¹ s⁻¹.

>  <Binder>
IGF2R domain 11^AB3 (receptor, His6-tagged soluble domain 11; also called domain 11^E1544K, K1545S, L1547V; 1542YSKSGV1547) MKSNEHDDCQVTNPSTGHLFDLSSLSGRAGFTAAYSKSGVVYMSICGENENCPPGVGACFGQTRISVGKANKRLRYVDQVLQLVYKDGSPCPSKSGLSYKSVISFVCRPEAGPTNRPMLISLDKQTCTLFFSWHTPLACEQATECSV

>  <Display unit>
M⁻¹ s⁻¹

>  <kon>
2.76e+06

$$$$
>  <Binder>
domain 11^WT + 312G (HI-VKLM) (receptor, See m5; Protein quality poor) MKSNEHDDCQVTNPSTGHLFDLSSLSGRAGFTAAYSEKGLVYMSICGENENCPPGVGACFGQTRISVGKANKRLRYVDQVLQLVYKDGSPCPSKSGLSYKSVISFVCRPEAGPTNRPMLISLVKLMCTLFFSWHTPLACEQATECSV

>  <Display unit>
M⁻¹ s⁻¹

>  <kon>
1.07e+06

$$$$

## Task Entry domain 11^AB3 P1597H (receptor, See m5; also called AB3 + 62B (FG-P1597H)) MKSNEHDDCQVTNPSTGHLFDLSSLSGRAGFTAAYSKSGVVYMSICGENENCPPGVGACFGQTRISVGKANKRLRYVDQVLQLVYKDGSHCPSKSGLSYKSVISFVCRPEAGPTNRPMLISLDKQTCTLFFSWHTPLACEQATECSV has what kon?
## Result 1.06e+07

## Task What measured kon goes with IGF2R domain 11^WT (receptor, Soluble His6-tagged domain 11 from P. pastoris and/or E. coli; also called wild-type domain 11) MKSNEHDDCQVTNPSTGHLFDLSSLSGRAGFTAAYSEKGLVYMSICGENENCPPGVGACFGQTRISVGKANKRLRYVDQVLQLVYKDGSPCPSKSGLSYKSVISFVCRPEAGPTNRPMLISLDKQTCTLFFSWHTPLACEQATECSV ?
## Result 5e+06
